- measured_on: DNA polymerase beta (Homo sapiens)
observation_type: IC50

                    structure_smiles_string   reading
0  C[C@@]1(F)[C@H](O)[C@@H](COP(=O)(O)OP(=O)(O)OP(=O)(O)O)O[C@H]1c1cnc2c(N)ncnn12  > 200 µM

---

- assay_details: Half life in human plasma at 2 uM by LC-MS/MS analysis
- Format: ADME, cell-free
Could you mark each record label 1 if its half-life at 2 µM falls strictly under 8 h, and label 0 if it equals or exceeds it?

>>> print(df.to_string())
                                   compound  category
0  CC(C)OC(=O)C(C)(C)NP(=O)(OC[C@H]1O[C@@H](c2ccc3c(N)ncnn23)[C@](C)(F)[C@@H]1O)Oc1ccccc1 (stereo partly drawn)   label 1
1  CCOC(=O)C(C)(C)NP(=O)(OC[C@H]1O[C@@H](c2cnc3c(N)ncnn23)[C@](C)(F)[C@@H]1O)Oc1ccccc1 (stereo partly drawn)   label 1
2  CC(C)OC(=O)[C@@H](C)NP(=O)(OC[C@H]1O[C@@H](c2cnc3c(N)ncnn23)[C@](C)(F)[C@@H]1O)Oc1ccccc1 (stereo partly drawn)   label 1
3  CC(C)OC(=O)C1(NP(=O)(OC[C@H]2O[C@@H](c3cnc4c(N)ncnn34)[C@](C)(F)[C@@H]2O)Oc2ccccc2)CCC1 (stereo in doubt; 37)   label 0
4  CCOC(=O)[C@@H](C)NP(=O)(OC[C@H]1O[C@@H](c2cnc3c(N)ncnn23)[C@](C)(F)[C@@H]1O)Oc1ccccc1 (stereo partly drawn)   label 0
5  CCOC(=O)C1(NP(=O)(OC[C@H]2O[C@@H](c3cnc4c(N)ncnn34)[C@](C)(F)[C@@H]2O)Oc2ccccc2)CCC1 (stereo partly drawn)   label 0
6  CC(C)OC(=O)[C@H](C)N[P@](=O)(OC[C@H]1O[C@@H](c2cnc3c(N)ncnn23)[C@](C)(F)[C@@H]1O)Oc1ccccc1   label 0
7  CCOC(=O)[C@H](C)NP(=O)(OC[C@H]1O[C@@H](c2cnc3c(N)ncnn23)[C@](C)(F)[C@@H]1O)Oc1ccccc1 (stereo partly drawn)   label 1

---

- System: RNA-directed RNA polymerase (Hepacivirus hominis), O39930 [UNDEFINED MUTATION]
- assay_details: Inhibition of HCV genotype 1b wild-type NS5B RNA dependent RNA polymerase S282T mutant relative to control
- measurement_setup: Hepatitis C virus subtype 1b
observation_type: fold change (FC)

                                   compound  qualifier  reading
0  C[C@@]1(F)[C@H](O)[C@@H](COP(=O)(O)OP(=O)(O)OP(=O)(O)O)O[C@H]1c1cnc2c(N)ncnn12          =      5.9
1  C[C@@]1(O)[C@H](O)[C@@H](COP(=O)(O)OP(=O)(O)OP(=O)(O)O)O[C@H]1c1ccc2c(N)ncnn12          >       30
2  C[C@@]1(F)[C@H](O)[C@@H](COP(=O)(O)OP(=O)(O)OP(=O)(O)O)O[C@H]1c1ccc2c(N)ncnn12          =      2.8
3  C[C@@]1(F)[C@H](O)[C@@H](COP(=O)(O)OP(=O)(O)OP(=O)(O)O)O[C@@]1(C#N)c1ccc2c(N)ncnn12 [GS-441326]          =        6

---

// values below are reported half-life at 2 µM
- assay_details: Half life in hamster intestinal S9 fractions at 2 uM by LC-MS/MS analysis
- Type: ADME, Intestine
- measurement_setup: cricetinae, intestinal S9 fractions
observation_type: half-life at 2 µM (h)

>>> df
                                   molecule  reading
0  CC(C)OC(=O)[C@H](C)N[P@](=O)(OC[C@H]1O[C@@H](c2cnc3c(N)ncnn23)[C@](C)(F)[C@@H]1O)Oc1ccccc1    0.183
1  CCOC(=O)C1(NP(=O)(OC[C@H]2O[C@@H](c3cnc4c(N)ncnn34)[C@](C)(F)[C@@H]2O)Oc2ccccc2)CCC1 (some centres undefined)     1.17
2  CCOC(=O)C(C)(C)NP(=O)(OC[C@H]1O[C@@H](c2cnc3c(N)ncnn23)[C@](C)(F)[C@@H]1O)Oc1ccccc1 (some centres undefined)     1.67
3  CC(C)OC(=O)[C@@H](C)NP(=O)(OC[C@H]1O[C@@H](c2cnc3c(N)ncnn23)[C@](C)(F)[C@@H]1O)Oc1ccccc1 (some centres undefined)     6.92
